- Run description: Cmax in Wistar rat at 3 mg/kg, po or 1 mg/kg, iv after 0.25 to 24 hrs by LCMS/MS analysis
- Assay type: ADME, organism-based
- Design: dose 3 mg/kg, time upper 24 hrs, time lower 0.25 hrs
- Condition notes: in vivo
Property label: Cmax (nM)

[[record]]
smiles_str = "N[C@@H](CC(=O)O)Cn1nnc(-c2ccc(Oc3ncc(Cl)cc3F)cc2)n1"
property_label = "Cmax"
numeric_readout = 1240


###

- Run description: Volume of distribution at steady state in C57BL6 mouse at 10 mg/kg, po or 3 mg/kg, iv after 0.25 to 24 hrs by LCMS/MS analysis
- Format: ADME, organism-based
- Condition notes: in vivo, time 0.25-24 hrs, read-out: Vdss
Property label: Vd (L/kg)

[[record]]
smiles_str = "N[C@@H](CC(=O)O)Cn1nnc(-c2ccc(Oc3ncc(Cl)cc3F)cc2)n1"
measurement_unit = "L/kg"
numeric_readout = 2.15

